B1: KLHL14 (parent)
chain: CAVLDDSIYLVGGYSWSMGAYKSS

Variants of: B1
Method description: protein stability index of a GFP-peptide fusion (GPS, HEK-293T) (PSI 1-6); higher = more stable;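 note: lentivirally expressed fusions sorted by FACS into six bins by GFP to DsRed ratio, PSI derived from sequencing read proportions per bin multiplied by bin number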
Experimental conditions: c terminus: a fixed tail appended
We use 2 as the dividing line for protein stability index: on or above the line is true, below is false.

# check: protein stability index of V3G is greater than or equal to 2
false

# check: protein stability index of D6I is greater than or equal to 2
true

# check: protein stability index of S24D is greater than or equal to 2
false

# check: protein stability index of G13N is greater than or equal to 2
true

# check: protein stability index of Y21Q is greater than or equal to 2
true

# check: protein stability index of G12I is greater than or equal to 2
true

# check: protein stability index of S24N is greater than or equal to 2
true

# check: protein stability index of Y14W is greater than or equal to 2
true

# check: protein stability index of A2H is greater than or equal to 2
false

# check: protein stability index of Y21H is greater than or equal to 2
true

# check: protein stability index of D5V is greater than or equal to 2
true

# check: protein stability index of Y21V is greater than or equal to 2
true

# check: protein stability index of I8H is greater than or equal to 2
false

# check: protein stability index of A2W is greater than or equal to 2
true

# check: protein stability index of C1N is greater than or equal to 2
false

# check: protein stability index of W16P is greater than or equal to 2
true

# check: protein stability index of I8K is greater than or equal to 2
false

# check: protein stability index of G12S is greater than or equal to 2
false

# check: protein stability index of Y14C is greater than or equal to 2
true

# check: protein stability index of L4V is greater than or equal to 2
false

# check: protein stability index of L4I is greater than or equal to 2
true

# check: protein stability index of L10H is greater than or equal to 2
false

# check: protein stability index of G12A is greater than or equal to 2
true

# check: protein stability index of Y9R is greater than or equal to 2
true

# check: protein stability index of L4P is greater than or equal to 2
false

# check: protein stability index of S15W is greater than or equal to 2
true

# check: protein stability index of S24K is greater than or equal to 2
true

# check: protein stability index of V3Y is greater than or equal to 2
false

# check: protein stability index of C1T is greater than or equal to 2
false

# check: protein stability index of D5N is greater than or equal to 2
true

# check: protein stability index of L4D is greater than or equal to 2
true

# check: protein stability index of Y14N is greater than or equal to 2
false

# check: protein stability index of V3I is greater than or equal to 2
true

# check: protein stability index of W16Q is greater than or equal to 2
false

# check: protein stability index of M18H is greater than or equal to 2
true

# check: protein stability index of M18N is greater than or equal to 2
false

# check: protein stability index of I8N is greater than or equal to 2
false

# check: protein stability index of Y21L is greater than or equal to 2
true

# check: protein stability index of S7R is greater than or equal to 2
false

# check: protein stability index of L10I is greater than or equal to 2
false

# check: protein stability index of G13Q is greater than or equal to 2
true

# check: protein stability index of G12M is greater than or equal to 2
true

# check: protein stability index of S17L is greater than or equal to 2
true

# check: protein stability index of V3T is greater than or equal to 2
true

# check: protein stability index of S7L is greater than or equal to 2
true

# check: protein stability index of M18S is greater than or equal to 2
false

# check: protein stability index of S17E is greater than or equal to 2
true

# check: protein stability index of W16A is greater than or equal to 2
false

# check: protein stability index of S24I is greater than or equal to 2
true

# check: protein stability index of C1Y is greater than or equal to 2
false

# check: protein stability index of D6W is greater than or equal to 2
true

# check: protein stability index of Y21P is greater than or equal to 2
true

# check: protein stability index of S7H is greater than or equal to 2
true

# check: protein stability index of S7P is greater than or equal to 2
true

# check: protein stability index of V3H is greater than or equal to 2
false

# check: protein stability index of S23L is greater than or equal to 2
true

# check: protein stability index of S7F is greater than or equal to 2
true

# check: protein stability index of S17W is greater than or equal to 2
true

# check: protein stability index of V11G is greater than or equal to 2
false

# check: protein stability index of Y9D is greater than or equal to 2
true

# check: protein stability index of S7C is greater than or equal to 2
true

# check: protein stability index of D5L is greater than or equal to 2
true

# check: protein stability index of G19E is greater than or equal to 2
false

# check: protein stability index of G12E is greater than or equal to 2
true

# check: protein stability index of V11F is greater than or equal to 2
false

# check: protein stability index of C1D is greater than or equal to 2
true

# check: protein stability index of G19I is greater than or equal to 2
true

# check: protein stability index of G13V is greater than or equal to 2
false

# check: protein stability index of V11R is greater than or equal to 2
false

# check: protein stability index of Y9K is greater than or equal to 2
false

# check: protein stability index of I8Q is greater than or equal to 2
false

# check: protein stability index of D5A is greater than or equal to 2
true

# check: protein stability index of S15N is greater than or equal to 2
true

# check: protein stability index of I8Y is greater than or equal to 2
true

# check: protein stability index of S15K is greater than or equal to 2
true

# check: protein stability index of D6P is greater than or equal to 2
true

# check: protein stability index of C1H is greater than or equal to 2
false

# check: protein stability index of I8V is greater than or equal to 2
true

# check: protein stability index of I8A is greater than or equal to 2
true

# check: protein stability index of M18F is greater than or equal to 2
true

# check: protein stability index of M18I is greater than or equal to 2
true

# check: protein stability index of K22N is greater than or equal to 2
true

# check: protein stability index of Y21N is greater than or equal to 2
true

# check: protein stability index of I8L is greater than or equal to 2
true
